- measured.on: HLA-A*03:01 (Homo sapiens)
- Type: binding
No end group written: not given here.
value.kind: EC50

monomer_sequence=VVVGAAGVGK value_kind=EC50 reported_value="94 µM"
monomer_sequence=VVVGARGVGK value_kind=EC50 reported_value="69.7 µM"
monomer_sequence=VVGAAGVGK value_kind=EC50 reported_value="277 µM"

###

- measured.on: HLA-A*11:01 (Homo sapiens, UniProt P04439, A114D/D185E/E176A/F33Y/L180Q/S129P/T187R)
- run.description: Cell-based competitive MHC-I-binding assay, CJO-A lymphoblastoid cells
- condition.description: Table S2; […], competition with 500 nM FITC-labelled KVFPK(FITC)ALINK, serum-free RPMI, 4 hours, 37°C, peptide from 100 µM, flow cytometry; analyzed three times, mean; read-out: EC/IC50 (M) Binding assay: IC50, HLA-A*11:01
value.kind: IC50 (M)

smiles_str=CC(C)[C@H](N)C(=O)N[C@H](C(=O)N[C@H](C(=O)NCC(=O)N[C@@H](C)C(=O)N[C@@H](CO)C(=O)NCC(=O)N[C@H](C(=O)NCC(=O)N[C@@H](CCCCN)C(=O)O)C(C)C)C(C)C)C(C)C value_kind=IC50 reported_value=1.02e-05
smiles_str=CC(C)[C@H](N)C(=O)N[C@H](C(=O)NCC(=O)N[C@@H](C)C(=O)N[C@@H](CO)C(=O)NCC(=O)N[C@H](C(=O)NCC(=O)N[C@@H](CCCCN)C(=O)O)C(C)C)C(C)C value_kind=IC50 reported_value=1.27e-05
